Task for the reader: assign each of the following compounds its reported Heart rate % variation.
System: New Zealand rabbits
protocolDescription: Occlusion-reperfusion model in the anesthetized animal (ECG ST segment, arterial pressure, heart rate)
Format: in vivo, rabbit
conditionsUsed: 2.5 mg/kg p.o., anesthetized rabbit
Give the quantity in %, number only.

Exam item: I have this compound here, `COc1ccccc1SC[C@H](CN[C@@H]1COc2ccccc2SC1)OC` , and I need its recorded Heart rate % variation.
Marked response: 2

Exam item: `COc1ccc([C@@H]2Sc3ccccc3N(CCN(C)C)C(=O)[C@@H]2OC(C)=O)cc1` ?
Marked response: −5

Exam item: `COc1ccccc1SC[C@@H](C)CN[C@@H]1COc2ccccc2SC1` ?
Marked response: 0

Exam item: CC(C)NCC(O)COc1ccc(CC(N)=O)cc1 (stereo not shown) ?
Marked response: −13

###

Counter-ions that a name gives are not always drawn.
Task for the reader: assign each of the following compounds its reported melting point.

Exam item: I have this compound here, C[C@@H](CN[C@@H]1COc2ccccc2SC1)CSc1cccc2c1OCC2 (as salt: maleate) [Compound 1-16] , and I need its recorded melting point.
Marked response: 116 to 118 °C

Exam item: COc1cccc(SC[C@@H](C)CN[C@@H]2COc3ccccc3SC2)c1O (as salt: maleate) [Compound 1-23] ?
Marked response: 137 to 139 °C

Exam item: C[C@@H](CN[C@@H]1COc2ccccc2SC1)CSc1ccccc1O (as salt: maleate) [Compound 1-18] ?
Marked response: 119 to 121 °C

Exam item: CCC[C@H](CN[C@@H]1COc2ccccc2SC1)CSc1ccccc1OC (as salt: maleate) [Compound 1-12] ?
Marked response: 131 to 133 °C

Exam item: COc1ccccc1SC[C@@H](O)CN[C@@H]1COc2ccccc2SC1 (as salt: maleate) [Compound 1-5] ?
Marked response: 133 to 135 °C

Exam item: CC[C@@H](CN[C@@H]1COc2ccccc2SC1)CSc1cccc(C)c1O (as salt: maleate) [Compound 1-20] ?
Marked response: 111 to 112 °C

Exam item: COc1ccccc1SC[C@H](CN[C@@H]1COc2ccccc2SC1)OC (as salt: maleate) [Compound 1-1] ?
Marked response: 122 °C

Exam item: COc1cccc(SC[C@@H](C)CN[C@@H]2COc3ccccc3SC2)c1OC (as salt: maleate) [Compound 1-24] ?
Marked response: 117 to 119 °C

Exam item: CC[C@H](CN[C@@H]1COc2ccccc2SC1)CSc1ccccc1OC (as salt: maleate) [Compound 1-10] ?
Marked response: 140 °C

###

Where a name gives a salt, the structure may show the parent alone.
Task for the reader: assign each of the following compounds its reported melting point.
Give the quantity in °C, number only.

Exam item: I have this compound here, Cc1cccc(SC[C@H](CN[C@@H]2COc3ccccc3SC2)C(C)C)c1O (as salt: maleate) , and I need its recorded melting point.
Marked response: 127

Exam item: CCc1cccc(SC[C@@H](C)CN[C@@H]2COc3ccccc3SC2)c1O (as salt: maleate) ?
Marked response: 120

Exam item: COc1ccccc1SC[C@@H](C)CN[C@@H]1COc2ccc(C)cc2SC1 (as salt: maleate) ?
Marked response: 148

Exam item: CC(C)c1cccc(SC[C@@H](C)CN[C@@H]2COc3ccccc3SC2)c1O (as salt: maleate) ?
Marked response: 126

Exam item: COc1ccccc1SC[C@@H](CN[C@@H]1COc2ccccc2SC1)OC (as salt: maleate) ?
Marked response: 116

Exam item: Oc1ccccc1SC[C@H](O)CN[C@@H]1COc2ccccc2SC1 (as salt: oxalate) ?
Marked response: 135

###

Test system: New Zealand rabbits
protocolDescription: Occlusion-reperfusion model in the anesthetized animal (ECG ST segment, arterial pressure, heart rate)
Type: in vivo, rabbit
conditionsUsed: 2.5 mg/kg p.o., anesthetized rabbit
Task for the reader: assign each of the following molecules its reported Arterial pressure % variation.
Give the quantity in %, number only.

Exam item: Item: CC(C)NCC(O)COc1ccc(CC(N)=O)cc1 (stereo not shown) [Atenolol, atenolol] Test system: New Zealand rabbits Read-out: Arterial pressure % variation Value: ?
Marked response: −9

Exam item: COc1ccccc1SC[C@H](CN[C@@H]1COc2ccccc2SC1)OC [Compound 1-1] ?
Marked response: 8

Exam item: COc1ccccc1SC[C@@H](C)CN[C@@H]1COc2ccccc2SC1 [Compound 1-7] ?
Marked response: 5

Exam item: COc1ccc([C@@H]2Sc3ccccc3N(CCN(C)C)C(=O)[C@@H]2OC(C)=O)cc1 [Diltiazem, diltiazem] ?
Marked response: −27

###

Tested on: New Zealand rabbits
protocolDescription: Occlusion-reperfusion model in the anesthetized animal (ECG ST segment, arterial pressure, heart rate)
Assay type: in vivo, rabbit
conditionsUsed: 2.5 mg/kg p.o., anesthetized rabbit, coronary occlusion-reperfusion
Returns one of condition met or condition not met; condition met when ST segment % inhibition at 2.5 mg/kg p.o. is >= 50%.

Exam item: Threshold query (ST segment % inhibition at 2.5 mg/kg p.o. >= 50%) on `COc1ccc([C@@H]2Sc3ccccc3N(CCN(C)C)C(=O)[C@@H]2OC(C)=O)cc1`
Marked response: condition not met

Exam item: `COc1ccccc1SC[C@H](CN[C@@H]1COc2ccccc2SC1)OC` ?
Marked response: condition met

Exam item: `CN(c1nc2ccccc2s1)C1CCN(CCCCOc2ccc(F)cc2)CC1` ?
Marked response: condition not met

Exam item: `COc1ccccc1SC[C@@H](C)CN[C@@H]1COc2ccccc2SC1` ?
Marked response: condition met

###

Task for the reader: assign each of the following molecules its reported melting point.
Counter-ions that a name gives are not always drawn.

Exam item: I have this molecule here, COc1ccccc1SC[C@@H](C)CN[C@@H]1COc2cccc(C)c2SC1 (as salt: maleate) [Compound 1-15] , and I need its recorded melting point.
Marked response: 111 to 113 °C

Exam item: CCC[C@@H](CN[C@@H]1COc2ccccc2SC1)CSc1ccccc1OC (as salt: maleate) [Compound 1-11] ?
Marked response: 132 to 133 °C

Exam item: Cc1cccc(O)c1SC[C@@H](C)CN[C@@H]1COc2ccccc2SC1 (as salt: maleate) [Compound 1-26] ?
Marked response: 153 to 154 °C

Exam item: Cc1cccc(SC[C@@H](C)CN[C@@H]2COc3cccc(C)c3SC2)c1O (as salt: maleate) [Compound 1-22] ?
Marked response: 108 to 109 °C

Exam item: COc1ccccc1SC[C@H](CN[C@@H]1COc2ccccc2SC1)C(C)C (as salt: maleate) [Compound 1-13] ?
Marked response: 114 to 115 °C

Exam item: Oc1ccccc1SC[C@@H](O)CN[C@@H]1COc2ccccc2SC1 (as salt: oxalate) [Compound 1-3] ?
Marked response: 176 to 177 °C

Exam item: COc1ccccc1SC[C@H](O)CN[C@@H]1COc2ccccc2SC1 (as salt: maleate) [Compound 1-6] ?
Marked response: 136 to 138 °C

Exam item: CC[C@@H](CN[C@@H]1COc2ccccc2SC1)CSc1ccccc1OC (as salt: fumarate) [Compound 1-9] ?
Marked response: 86 to 88 °C

Exam item: Cc1cccc(SC[C@@H](C)CN[C@@H]2COc3ccccc3SC2)c1O (as salt: maleate) [Compound 1-17] ?
Marked response: 124 to 126 °C
